Entry source: patent US9499550B2

Test system: HCV genotype 1b (Con1) replicon in HUH-7 cells
Assay: HCV replicon luciferase reporter assay, genotype 1b
Assay type: cell-based
Conditions: Hepatitis C virus, Huh-7, 72 h, HCV genotype 1b replicon luciferase, 3 days incubation, read-out: LE_1b (EC50, range)
pEC50: −log10 of the molar value.
measured-endpoint: pEC50

Field pEC50 (entry [2H]C([2H])([2H])C(C)(OC(=O)N[C@@H]1C(=O)N2C[C@H](Oc3nccc4cc(OC(C)C)ccc34)C[C@H]2C(=O)N[C@]2(C(=O)NS(=O)(=O)C3CC3)C[C@H]2/C=C\CC[C@@H](C)C[C@H]1C)C([2H])([2H])[2H] [Compound 5153] ) reads > 8.26

Field pEC50 (entry CC[C@@H]1C[C@H](C)CC/C=C\[C@@H]2C[C@@]2(C(=O)NS(=O)(=O)C2CC2)NC(=O)[C@@H]2C[C@@H](Oc3nccc4c5c(ccc34)N(C)CCO5)CN2C(=O)[C@H]1NC(=O)OC(C)(C)C [Compound 5308] ) reads > 8.26

Field pEC50 (entry COc1cnc(O[C@@H]2C[C@H]3C(=O)N[C@]4(C(=O)NS(=O)(=O)C5(F)CC5)C[C@H]4/C=C\CC[C@H](C)C[C@@H](C)[C@H](NC(=O)OC(C)(C)C)C(=O)N3C2)c2cc(F)ccc12 [Compound 4046] ) reads 6.99 to 8.32

Field pEC50 (entry COc1cc2cc(-c3ccc(OC(C)C)cc3)nc(O[C@@H]3C[C@H]4C(=O)N[C@]5(C(=O)NS(=O)(=O)C6CC6)C[C@H]5/C=C\CC[C@@H](C)C[C@@H](C)[C@H](NC(=O)OC(C)(C)C(F)(F)F)C(=O)N4C3)c2cc1F [Compound 3190] ) reads > 8.26

###

Test system: HCV genotype 1b (Con1) replicon in HUH-7 cells
Assay: HCV replicon luciferase reporter assay, genotype 1b
Type: cell-based
Details: Hepatitis C virus, Huh-7, 72 h, HCV genotype 1b replicon luciferase, 3 days incubation, read-out: LE_1b (EC50, range)
pEC50: −log10 of the molar value.
measured-endpoint: pEC50

CCOc1cnc(O[C@@H]2C[C@H]3C(=O)N[C@]4(C(=O)NS(=O)(=O)C5(C)CC5)C[C@H]4/C=C\CC[C@@H](C)C[C@@H](C)[C@H](NC(=O)O[C@H](C)C(F)(F)F)C(=O)N3C2)c2ccccc12 [Compound 4066]
> 8.26

Now consider the entry below.
Field pEC50 (entry COc1cc2ccnc(O[C@@H]3C[C@H]4C(=O)N[C@]5(C(=O)NS(=O)(=O)C6(F)CC6)C[C@H]5/C=C\CC[C@@H](C)C[C@@H](C)[C@H](NC(=O)OC(C)(C)C)C(=O)N4C3)c2cc1Cl [Compound 4024] ) reads > 8.26

###

System: HCV genotype 1b (Con1) replicon in HUH-7 cells
Assay: HCV replicon luciferase reporter assay, genotype 1b
Type: cell-based
Conditions: Hepatitis C virus, Huh-7, 72 h, HCV genotype 1b replicon luciferase, 3 days incubation, read-out: LE_1b (EC50, range)
pEC50: −log10 of the molar value.
# reported pEC50; entries follow

CC[C@@H]1C[C@H](C)CC/C=C\[C@@H]2C[C@@]2(C(=O)NS(=O)(=O)C2(C)CC2)NC(=O)[C@@H]2C[C@@H](Oc3nccc4cc(OC)c(F)cc34)CN2C(=O)[C@H]1NC(=O)N1CCC(F)(F)CC1 [Compound 4344]
8.30 to 9.00
COc1cc2ccnc(O[C@@H]3C[C@H]4C(=O)N[C@]5(C(=O)NS(=O)(=O)C6(CF)CC6)C[C@H]5/C=C\CC[C@@H](C)C[C@@H](C)[C@H](NC(=O)OC(C)(C)C(F)(F)F)C(=O)N4C3)c2cc1OC [Compound 5381]
8.30 to 9.00
COc1ccc2c(Cl)ncc(O[C@@H]3C[C@H]4C(=O)N[C@]5(C(=O)NS(=O)(=O)C6(C)CC6)C[C@H]5/C=C\CC[C@@H](C)C[C@@H](C)[C@H](NC(=O)OC(C)(C)C)C(=O)N4C3)c2c1 [Compound 4375]
9.00 to 9.29

Now consider the entry below.
Field pEC50 (entry CC[C@@H]1C[C@H](C)CC/C=C\[C@@H]2C[C@@]2(C(=O)NS(=O)(=O)C2(C)CC2)NC(=O)[C@@H]2C[C@@H](Oc3nccc4cc(OC)c(F)cc34)CN2C(=O)[C@H]1NC(=O)OC(C)(C)C(F)F [Compound 5527] ) reads 9.00 to 9.29
